Tested on: human Factor 11 mRNA
TEST_DETAILS: Dose-dependent inhibition of human Factor 11 in HepG2 cells, lipofectin 2.34-75 nM (Example 5)
Format: cell-based
EXPERIMENTAL_CONDITIONS: 18.75 nM, ~16 hours
We use 60% as the dividing line for percent inhibition of human Factor 11 mRNA relative to untreated control cells: on or above the line is rule met, below is rule not met.

416999 (antisense GCACAGTTTCTGGCAGGCCT; 2-13-5 gapmer chemistry, further chemistry not given here) [compound 416999] : rule met

Proceed to the following item.
Request: Reported percent inhibition of human Factor 11 mRNA relative to untreated control cells reaches at least 60% for 416826 (antisense ATGCCCTTCATGTCTAGGTC; 5-10-5 gapmer, further chemistry not given here) [compound 416826] ?
Response: rule not met

* * *

TEST_DETAILS: Hematology assays in cynomolgus monkeys (Example 45)
Type: in vivo
EXPERIMENTAL_CONDITIONS: day 78
Threshold-based label: lymphocytes under 50% gives true, lymphocytes not under 50% gives false.

Would you please look over these solved cases?
ISIS 417002: MOE gapmer, nucleobases 1275 to 1318 of SEQ ID NO: 1 (Table 8) (antisense GGTGCACAGTTTCTGGCAGG; MOE gapmer, wing and gap sizes not given here) : true
ISIS 416864: MOE gapmer, nucleobases 1275 to 1318 of SEQ ID NO: 1 (Table 8) (antisense GGCAGCGGACGGCATTGGTG; MOE gapmer, wing and gap sizes not given here) : true
ISIS 416838: MOE gapmer, nucleobases 1018 to 1042 of SEQ ID NO: 1 (Table 6) (antisense GCAACCGGGATGATGAGTGC; MOE gapmer, wing and gap sizes not given here) : false

Request: Please state whether lymphocytes is below 50% for ISIS 416858: MOE gapmer, nucleobases 1275 to 1318 of SEQ ID NO: 1 (Table 8) (antisense ACGGCATTGGTGCACAGTTT; MOE gapmer, wing and gap sizes not given here)
Response: false

* * *

Overview of reported monocytes across a group of substances:
TEST_DETAILS: Hematology assays in cynomolgus monkeys (Example 46)
Format: in vivo
EXPERIMENTAL_CONDITIONS: Day 17
Strand notation (5' to 3'): a small letter for the sugar, then the base; units joined by * are phosphorothioate-linked, units joined directly phosphodiester-linked; [ ] holds rarer units or linkages, { } end groups; capitals alone tell only the bases. e = 2'-O-(2-methoxyethyl) (MOE); [5mC] = 5-methylcytosine; d = 2'-deoxy (DNA)
Please state the figure in %; there is no need to write the unit.

ISIS 416858: MOE gapmer, nucleobases 1275 to 1318 of SEQ ID NO: 1 (Table 8) (antisense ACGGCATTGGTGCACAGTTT; MOE gapmer, wing and gap sizes not given here) : 4.0
ISIS 449708: 3-8-3, 4-8-4, 2-10-2, 3-10-3 or 4-10-4 MOE microwalk gapmer (Table 46) (antisense eA*e[5mC]*eA*dG*dT*dT*dT*d[5mC]*dT*dG*dG*e[5mC]*eA*eG) : 5.4
ISIS 445531: 5-8-5 or 6-8-6 MOE microwalk gapmer (Table 44) (antisense eG*eG*e[5mC]*eA*eT*dT*dG*dG*dT*dG*d[5mC]*dA*d[5mC]*eA*eG*eT*eT*eT) : 3.4
ISIS 449709: 3-8-3, 4-8-4, 2-10-2, 3-10-3 or 4-10-4 MOE microwalk gapmer (Table 46) (antisense eG*e[5mC]*eA*e[5mC]*dA*dG*dT*dT*dT*d[5mC]*dT*dG*dG*d[5mC]*eA*eG*eG*e[5mC]) : 3.0
ISIS 445522: 5-8-5 or 6-8-6 MOE microwalk gapmer (Table 44) (antisense eG*e[5mC]*eA*e[5mC]*eA*dG*dT*dT*dT*d[5mC]*dT*dG*dG*e[5mC]*eA*eG*eG*e[5mC]) : 3.6
ISIS 449711: 3-8-3, 4-8-4, 2-10-2, 3-10-3 or 4-10-4 MOE microwalk gapmer (Table 46) (antisense eA*e[5mC]*dA*dG*dT*dT*dT*d[5mC]*dT*dG*dG*d[5mC]*eA*eG) : 5.9
ISIS 416850: MOE gapmer, nucleobases 1275 to 1318 of SEQ ID NO: 1 (Table 8) (antisense TGCACAGTTTCTGGCAGGCC; MOE gapmer, wing and gap sizes not given here) : 3.2
ISIS 449710: 3-8-3, 4-8-4, 2-10-2, 3-10-3 or 4-10-4 MOE microwalk gapmer (Table 46) (antisense e[5mC]*eA*e[5mC]*dA*dG*dT*dT*dT*d[5mC]*dT*dG*dG*d[5mC]*eA*eG*eG) : 2.5

Could you now look at the following substance, please?
Request: Identify measured monocytes corresponding to ISIS 449707: 3-8-3, 4-8-4, 2-10-2, 3-10-3 or 4-10-4 MOE microwalk gapmer (Table 46) (antisense e[5mC]*eA*e[5mC]*eA*dG*dT*dT*dT*d[5mC]*dT*dG*dG*e[5mC]*eA*eG*eG)
Response: 3.2

Hello, the source for this data is patent US20230263822A1, in case you need it.
